- TESTED TARGET: MHC molecule coded by the HLA-A*0201 allele (recombinant HLA-A*0201 heavy chain refolded with beta-2 … (human))
- TEST DESCRIPTION: ELISA-based MHC refolding assay, recombinant HLA-A*0201 heavy chain + b2m + graded peptide
MEASUREMENT KIND: Kd (nM)
Respond numerically; units are nM and should not be typed.

TMLARLASA (also called IMA-CSP-001) [CSP-001]: 2.05

Okay, now this binder:
Data request, read-out Kd, for YVDPVITSI (also called MET-005 derived MET-001) [MET-001]
0.14
